System: NCI-H460
Test: Cytotoxicity against human NCI-H460 cells after 72 hrs by alamar blue assay
Assay type: functional, cell-based
Details: NCI-H460, 72 h
pIC50: −log10 of the molar value.
endpoint_label: pIC50

>>> endpoint_result("S=C(NCc1cccnc1)SCCc1nnc(-c2ccccc2)o1")
5.22

* * *

Test: Cytotoxicity against human PC3 cells after 72 hrs by alamar blue assay
Type: functional, cell-based
Conditions: PC-3, 72 h
endpoint_label: IC50

>>> endpoint_result("S=C(NCc1cccnc1)SCCc1nnc(-c2ccccc2)o1")
"390 nM"

* * *

Assay: Cytotoxicity against human Bel7402 cells after 72 hrs by alamar blue assay
Type: functional, cell-based
Conditions: Bel-7402, 72 h
pIC50: −log10 of the molar value.
Recorded pIC50 values for a group of compounds are listed next.
endpoint_label: pIC50

>>> endpoint_result("CC1(C)OB(CCCSC(=S)NCc2cccnc2)OC1(C)C")
5.37
>>> endpoint_result("S=C(NCc1cccnc1)SCCc1nnc(-c2cc3ccccc3s2)o1")
5.16
>>> endpoint_result("CCOP(=O)(CCSC(=S)NCc1cccnc1)OCC")
4.29
>>> endpoint_result("Cc1nc(-c2ccccc2)oc1CNC(=S)SCCC#N")
4.75
>>> endpoint_result("N#CCCSC(=S)NCc1cnc(N2CCOCC2)nc1")
4.65
>>> endpoint_result("S=C(NCc1cccnc1)SCCc1nnc(-c2ccccc2)o1")
5.91
>>> endpoint_result("N#CCCSC(=S)NCc1cnc2ccccc2c1")
4.02
>>> endpoint_result("CCCCOC(=O)CCSC(=S)NCc1cccnc1")
5.20
>>> endpoint_result("CN1CCOc2cc(CNC(=S)SCCC#N)cnc21")
3.49
>>> endpoint_result("S=C(NCc1cccnc1)SCCc1nnc(-c2cccnc2)o1")
5.86
>>> endpoint_result("Cc1c(CNC(=S)SCCC#N)cnn1-c1ccccc1")
4.60
>>> endpoint_result("O=S(=O)(O)CCCSC(=S)NCc1cccnc1")
5.18
>>> endpoint_result("N#CCCSC(=S)NCc1cccnc1")
5.99
>>> endpoint_result("Cn1cccc1CNC(=S)SCCC#N")
3.64
>>> endpoint_result("S=C(NCc1cccnc1)SCCc1nc2ccccc2s1")
5.45
>>> endpoint_result("N#CCCSC(=S)NCc1nnc(-c2ccccc2)s1")
4.73
>>> endpoint_result("Fc1ccccc1-c1nnc(CCSC(=S)NCc2cccnc2)o1")
5.26
>>> endpoint_result("S=C(NCc1cccnc1)SCCc1nnc(-c2cnccn2)o1")
5.84
>>> endpoint_result("NC(=O)CCSC(=S)NCc1cccnc1")
5.48
>>> endpoint_result("S=C(NCc1cccnc1)SCCc1nc2ccccc2[nH]1")
5.03
>>> endpoint_result("S=C(NCc1cccnc1)SCCc1nnc(-c2ccco2)o1")
5.80
>>> endpoint_result("Cc1cc(CNC(=S)SCCC#N)n(C)n1")
5.37
>>> endpoint_result("S=C(NCc1cccnc1)SCCc1nnn[nH]1")
4.24
>>> endpoint_result("S=C(NCc1cccnc1)SCCc1nnc(-c2cc[nH]c2)o1")
5.93
>>> endpoint_result("S=C(NCc1cccnc1)SCCc1nnc(-c2ccc3ncccc3c2)o1")
5.75
>>> endpoint_result("N#CCCSC(=S)NCc1nnc(-c2ccccc2)o1")
4.59
>>> endpoint_result("S=C(NCc1cccnc1)SCCc1nnc(-c2ccc(Cl)cc2)o1")
5.90
>>> endpoint_result("FC(F)(F)c1ccc(-c2nnc(CCSC(=S)NCc3cccnc3)o2)cc1")
5.91
>>> endpoint_result("OCCSC(=S)NCc1cccnc1")
5.44
>>> endpoint_result("N#CCCSC(=S)NCc1cncs1")
3.53
>>> endpoint_result("S=C(NCc1cccnc1)SCCn1nc2ccccc2n1")
5.58
>>> endpoint_result("O=[N+]([O-])c1ccc(-c2nnc(CCSC(=S)NCc3cccnc3)o2)cc1")
5.74
>>> endpoint_result("S=C(NCc1cccnc1)SCCc1nnc(-c2ccsc2)o1")
5.91
>>> endpoint_result("S=C(NCc1cccnc1)SCCc1nnc(-c2ccc3ccccc3n2)o1")
5.71
